I'd be grateful if you could share measured pIC50 for these entries.
Target entity: full-length human PIKFYVE (GST-PIKFYVE) (Homo sapiens, UniProt Q9Y2I7, L932S/Q1183K/Q995L/S1033A/S696N/T998S)
Construct: A full-length human PIKFYVE [1-2098 (end) amino acids; purchased Carna Biosciences; host or cells: baculovirus expression system
Sequence (Q9Y2I7 whole entry S696N/L932S/Q995L/T998S/S1033A/Q1183K): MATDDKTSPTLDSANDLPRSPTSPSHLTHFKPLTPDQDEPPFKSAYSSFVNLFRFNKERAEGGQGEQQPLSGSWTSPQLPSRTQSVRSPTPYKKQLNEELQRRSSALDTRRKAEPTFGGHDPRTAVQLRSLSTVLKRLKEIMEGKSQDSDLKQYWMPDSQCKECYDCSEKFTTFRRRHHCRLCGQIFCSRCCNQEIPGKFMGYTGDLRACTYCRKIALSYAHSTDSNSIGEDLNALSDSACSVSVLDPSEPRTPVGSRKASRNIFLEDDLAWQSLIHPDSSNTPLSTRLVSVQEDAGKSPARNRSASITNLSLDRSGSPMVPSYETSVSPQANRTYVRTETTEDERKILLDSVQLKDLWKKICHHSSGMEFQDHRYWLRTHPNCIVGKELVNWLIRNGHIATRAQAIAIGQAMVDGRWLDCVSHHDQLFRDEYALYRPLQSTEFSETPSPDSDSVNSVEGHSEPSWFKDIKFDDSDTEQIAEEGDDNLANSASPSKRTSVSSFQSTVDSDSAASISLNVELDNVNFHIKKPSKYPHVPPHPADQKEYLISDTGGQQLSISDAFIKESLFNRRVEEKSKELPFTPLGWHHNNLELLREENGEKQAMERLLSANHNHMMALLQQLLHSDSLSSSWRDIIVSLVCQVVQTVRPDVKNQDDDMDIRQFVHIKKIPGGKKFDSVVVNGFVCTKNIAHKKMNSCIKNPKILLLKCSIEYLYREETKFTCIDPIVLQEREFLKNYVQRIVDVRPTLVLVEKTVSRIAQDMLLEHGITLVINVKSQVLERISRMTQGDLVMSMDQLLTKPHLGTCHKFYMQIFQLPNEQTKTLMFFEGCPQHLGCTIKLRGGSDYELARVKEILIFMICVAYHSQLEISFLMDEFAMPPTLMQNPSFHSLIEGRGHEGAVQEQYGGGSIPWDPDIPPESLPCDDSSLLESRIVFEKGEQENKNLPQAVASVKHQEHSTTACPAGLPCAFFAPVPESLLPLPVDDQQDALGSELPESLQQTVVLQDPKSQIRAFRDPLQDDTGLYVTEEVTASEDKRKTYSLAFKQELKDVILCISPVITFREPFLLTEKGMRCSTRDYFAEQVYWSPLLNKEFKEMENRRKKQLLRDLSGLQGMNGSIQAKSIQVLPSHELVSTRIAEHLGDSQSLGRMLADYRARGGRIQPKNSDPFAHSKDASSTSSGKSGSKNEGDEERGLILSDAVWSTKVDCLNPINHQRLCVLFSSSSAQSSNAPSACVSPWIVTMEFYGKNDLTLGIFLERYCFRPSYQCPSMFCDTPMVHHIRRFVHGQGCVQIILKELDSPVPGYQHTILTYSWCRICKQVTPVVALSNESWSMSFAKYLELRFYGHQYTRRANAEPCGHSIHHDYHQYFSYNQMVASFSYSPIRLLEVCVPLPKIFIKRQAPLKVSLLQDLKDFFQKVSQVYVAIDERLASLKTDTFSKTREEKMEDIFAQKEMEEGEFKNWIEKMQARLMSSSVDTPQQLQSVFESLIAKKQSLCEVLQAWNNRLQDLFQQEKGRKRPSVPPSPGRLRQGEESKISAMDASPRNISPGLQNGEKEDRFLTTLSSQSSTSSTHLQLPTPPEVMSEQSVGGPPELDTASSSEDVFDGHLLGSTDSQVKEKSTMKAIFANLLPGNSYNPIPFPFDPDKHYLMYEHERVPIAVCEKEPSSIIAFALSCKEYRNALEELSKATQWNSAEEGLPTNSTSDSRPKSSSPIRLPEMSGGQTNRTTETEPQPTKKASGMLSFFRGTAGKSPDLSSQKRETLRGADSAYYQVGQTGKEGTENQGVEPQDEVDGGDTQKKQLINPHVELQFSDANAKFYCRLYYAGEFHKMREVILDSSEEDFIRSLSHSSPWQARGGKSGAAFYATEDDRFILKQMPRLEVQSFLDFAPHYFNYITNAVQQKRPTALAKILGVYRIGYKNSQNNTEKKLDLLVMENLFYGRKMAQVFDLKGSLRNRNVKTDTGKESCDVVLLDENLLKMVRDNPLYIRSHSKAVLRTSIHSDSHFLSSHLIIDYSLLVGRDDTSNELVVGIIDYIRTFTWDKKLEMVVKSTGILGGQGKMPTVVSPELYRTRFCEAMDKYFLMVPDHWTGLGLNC
Test description: PIKfyve biochemical assay (ADP-Glo Kinase assay, Carna Biosciences)
Assay conditions: values plotted in FIG. 7; read-out: PIKFYVE Biochemistry (IC50)
Give bare numbers, as −log10 of the molar value.

| Molecule | Result |
| --- | --- |
| c1cc(-c2cc3nc(C4CNC4)cc(N4CCOCC4)n3n2)ccn1 | 5.10 |
| O=c1ccc(-c2ccccc2)nn1-c1cc(N2CCOCC2)n2nc(-c3ccncc3)cc2n1 | 6.53 |
| c1cc(-c2nc3nc(N4CCOCC4)cc(N4CCOCC4)n3n2)ccn1 | 5.04 |
| c1ccc(-c2ccnc(-c3cc(N4CCOCC4)nc(OCc4ccncc4)n3)n2)cc1 | 7.49 |
| Oc1cc(C2CCOCC2)nn1-c1cc(N2CCOCC2)n2nc(-c3ccncc3)cc2n1 | 6.60 |
| c1ccc(C2CN(c3cc(N4CCOCC4)n4nc(-c5ccncc5)cc4n3)CCN2)cc1 (centres unmarked) | 5.58 |
| c1ccc(-c2cccc(-c3cc(N4CCOCC4)n4nc(-c5ccncc5)cc4n3)n2)cc1 | 7.85 |
| c1cc(COc2nc(N3CCOCC3)cc(-n3cc4c(n3)COCC4)n2)ccn1 | 5.87 |
| Cc1cccc(/C=N/Nc2nc(N3CCOCC3)c3ncccc3n2)c1 | 7.74 |
| Oc1cc(-c2ccccc2)nn1-c1cc(N2CCOCC2)n2nc(-c3ccncc3)nc2n1 | 7.74 |

For every item in the list below, what is its measured pIC50?
1. Cc1cccc(/C=N/Nc2cc(N3CCOCC3)nc(OCCc3ccc(CN)cc3)n2)c1
2. COc1nc(N2CCOCC2)nc2c1CCN2c1ccccc1 [drawing 274]
3. c1ccc(Cc2ncccc2-c2cc(N3CCOCC3)n3nc(-c4ccncc4)cc3n2)cc1
4. c1ccc(N2CCc3c(OCc4cccnc4)nc(N4CCOCC4)nc32)cc1 [drawing 275]
5. Cc1cccc(/C=N/Nc2nc(N3CCOCC3)c3nc(-c4ccncc4)n(C)c3n2)c1 [drawing 266]

Reply:
1: 8.15; 2: 7.07; 3: 5.96; 4: 7.38; 5: 8.30

For every item in the list below, what is its measured pIC50?
1. Cn1c(-c2ccncc2)nc2c(N3CCOCC3)ncnc21 [drawing 265]
2. c1ccc(-c2ccnn2-c2cc(N3CCOCC3)n3nc(-c4ccncc4)nc3n2)cc1

Reply:
1. 6.19
2. 6.12

----------
I'd be grateful if you could share measured IC50 for these entries.
Target entity: full-length human PIKFYVE (GST-PIKFYVE) (Homo sapiens, UniProt Q9Y2I7, L932S/Q1183K/Q995L/S1033A/S696N/T998S)
Construct: A full-length human PIKFYVE [1-2098 (end) amino acids; purchased Carna Biosciences; host or cells: baculovirus expression system
Test description: PIKfyve biochemical assay (ADP-Glo Kinase assay, Carna Biosciences)
Assay conditions: ADP-Glo, full-length human PIKFYVE; read-out: hPIKfyve IC50

Observe how each entry below is paired with its result.
| Compound | Attribute measured | Result |
| --- | --- | --- |
| c1cncc(N2CCc3c(OCCC4CCCO4)nc(N4CCOCC4)nc32)c1 (stereo not drawn) | IC50 | < 0.01 µM |
| CC(C)(C)OC(=O)N1CCC(OCc2nc(N3CCOCC3)nc3c2CCN3c2cccnc2)C1 (stereo not drawn) | IC50 | 1 to 10 µM |

Kindly review the next compound as well.
Ask: Give the measured IC50 of c1cncc(N2CCc3c(COC4CCNC4)nc(N4CCOCC4)nc32)c1 (stereo not drawn) .
Reply: 0.1 to 1 µM
